- ASSAY NAME: Pharmacokinetic study in male SD rats
- Type: in vivo
- CONDITION INFO: Sprague-Dawley (SD), rat, plasma, iv, i.v. 2 mg/kg

COMPOUND | half-life / min
N#Cc1ccc(-c2csc(N(CCCCCCC(=O)N3CCN(c4cccc5c4C(=O)N(C4CCC(=O)NC4=O)C5=O)CC3)N=C3CCCC3)n2)cc1 (stereo not shown) | 58

====

- ASSAY NAME: Pharmacokinetic study in male SD rats
- Type: in vivo
- CONDITION INFO: Sprague-Dawley (SD), rat, po, p.o. 10 mg/kg, plasma, 0–24 h
QUANTITY MEASURED: AUC(0-t) (ng·h/mL)

MOLECULE | ENDPOINT VALUE
N#Cc1ccc(-c2csc(N(CCCCCCC(=O)N3CCN(c4cccc5c4C(=O)N(C4CCC(=O)NC4=O)C5=O)CC3)N=C3CCCC3)n2)cc1 (stereo not shown) | 24.7

Values were extracted from paper PMC12670317.
